target: T1, TrkA protein on HEK-293T-TrkA cells or NIH-3T3-TrkA cells (human, UniProt P04629 33-796); assay: flow cytometry, antibody titrated on HEK-293T-TrKA cells, Parent %
T1 construct: whole, on cells; Printed only as TrkA for these cells; also called TrkA protein on the membrane of NIH-3T3-TrkA cells
T1 sequence (P04629 33-796): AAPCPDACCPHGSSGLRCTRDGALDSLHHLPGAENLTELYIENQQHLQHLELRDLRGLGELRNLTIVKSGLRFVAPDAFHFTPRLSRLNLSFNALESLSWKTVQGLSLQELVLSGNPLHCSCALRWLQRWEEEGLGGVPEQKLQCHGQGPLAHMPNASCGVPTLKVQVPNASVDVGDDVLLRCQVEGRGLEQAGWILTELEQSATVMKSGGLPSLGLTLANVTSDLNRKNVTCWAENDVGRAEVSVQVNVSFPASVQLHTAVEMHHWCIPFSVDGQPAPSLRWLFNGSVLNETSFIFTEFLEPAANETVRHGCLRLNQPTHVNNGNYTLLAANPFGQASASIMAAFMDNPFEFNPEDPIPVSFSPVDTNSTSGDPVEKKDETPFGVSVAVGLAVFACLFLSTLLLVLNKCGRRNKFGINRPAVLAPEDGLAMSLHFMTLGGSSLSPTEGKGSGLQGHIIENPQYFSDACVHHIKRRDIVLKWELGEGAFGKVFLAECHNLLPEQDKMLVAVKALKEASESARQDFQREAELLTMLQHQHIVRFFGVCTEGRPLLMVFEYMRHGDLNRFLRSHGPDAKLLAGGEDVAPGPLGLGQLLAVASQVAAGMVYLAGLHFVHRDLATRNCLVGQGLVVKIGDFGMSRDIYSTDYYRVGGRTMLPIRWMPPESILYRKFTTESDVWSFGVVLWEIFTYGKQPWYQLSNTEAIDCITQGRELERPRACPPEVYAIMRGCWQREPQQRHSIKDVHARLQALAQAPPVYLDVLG
As shown below, each of these binders has a reported EC50 value.
Numbers only; they are read as µg/mL.

// solved cases for EC50 follow
21E5 chimeric antibody (antibody, human IgG4 S228P, kappa, F234A L235A, V domains shown, expressed in CHO cells) VH: QVQLQQSGAELMKPGASMKISCKATGYTFSTYWIEWVKQRPGHGLEWIGENLPGRHITNYNEKFKGKATFTADTSSNTAYMQLSSLTSEDSAVYYCARGRGTYYFDYWGQGTPLTVSS VL: DIVMTQAAFSTPVTLGTSASISCRSSQSLLHSNGITYLYWYLQKPGQSPQLLIYQMSNLASGVPDRFSSSGSGTDFTLRISRVEAEDVGVYYCAQNLEFPFTFGSGTKLEIKR	0.0575
4H4 chimeric antibody (antibody, human IgG4 S228P, kappa, F234A L235A, V domains shown, expressed in CHO cells) VH: EVQLQQSGPELVKPGASMKISCKASGYSFTGYTMNWVKQSHGKNLEWIGLINPYNGGTRYNQKFKGKATLTVDKSSSTAYMELLSLTSEDSAVYYCASSSYRNDGNWYFDVWGAGTTVTVSS VL: DIVMTQSPAIMSASPGEKVTMTCSASSSVSYMHWYQQKSGTSPKRWIYDTSKLASGVPARFSGSGSGTSYSLTISSMETEDAATYYCQQWSSNPPTFGGGTKLELKR	0.211
23E12 chimeric antibody (antibody, human IgG4 S228P, kappa, F234A L235A, V domains shown, expressed in CHO cells) VH: QVQLQQSGAELVRPGTSVKISCKASGYAFTNYWLGWMKQRPGHGLEWIGDFYPRTGNTFYNENFKGKVTLTADKSSNTAYMQLSSLTSEDSAVYLCARAGTGFDYWGQGTTLTVSS VL: SIVMTQSPKSMSMSVGERVTLSCKASENVGGYVSWYQQKPDQSPKLLIYGASSRHTGVPDRFTGSGSETDFTLTISSVQAEDLAAYHCGQNYIYPFTFGGGTKLEIKR	0.0443

Can you share its EC50? I mean this binder: 27H3 chimeric antibody (antibody, human IgG4 S228P, kappa, F234A L235A, V domains shown, expressed in CHO cells) VH: QVQLQQSGAELMKPGASVKISCKTTGYRFSSYWIEWVKQRPGHGLEWLGEILPGRGIINYNENFRGKATFTADTSSNTAYVQLSSLTSEDSAVYFCARTDPPYFGVWGAGTTVTVSS VL: QAVVTQESALTTSPGETVTLTCRSSTGAVTISNYANWVQEKPDHLFTGLIGGTNNRPPGVPARFSGSLIGDKAALTITGAQTEDEAIYFCVLWYSNHWVFGGGTKLTVLR
0.0447

Another binder to check: 2A5 chimeric antibody (antibody, human IgG4 S228P, kappa, F234A L235A, V domains shown, expressed in CHO cells) VH: EVQLQQSGPELVKPGASMKISCKASGYSFTGYTMNWVKQSHGKNLEWIGLINPYNGGTNYNQKFKGKATLTVDKSSSTAYMELLSLTSEDSAVYYCAFSYYGSRGFYFDYWGQGTTLTVSS VL: QIVLTQSPALMSASPGEKVTMTCSATSSVSYIYWYQQKPRSSPKPWIYLTSNLASGVPARFSGSGSGTSYSLTISSMEAEDAATYYCQQWSSNPPTFGGGTKLEIKR
0.312

Another binder to check: 2008 chimeric antibody (antibody, human IgG4 S228P, kappa, F234A L235A, V domains shown, also called 20C8) VH: EVLLQQSGPELVKPGASMKISCKASVYSFTAYTMNWVKQSHGKNLEWIGLINPHNGGTRYNQKFKGKATLTLDKSSSTAYMDLLSLTSEDSAVYYCAISRYGSSSFYFDVWGAGTTVAVSS VL: QIVLSQSPAILSASPGEKVTMTCRASSSISYMHWYQQKPGSSPKPWISATSNLASGVPARFSGSGSGTSYSLTISGVEAEDAATYYCQQWSSNPPTFGGGTNLEIKR
0.136

Another binder to check: 1B9 chimeric antibody (antibody, human IgG4 S228P, kappa, F234A L235A, V domains shown, expressed in CHO cells) VH: QVHLQQSGAELMKPGASVKISCKATGYTFNIYWIDWVKQRPGHGLEWIGEILPGSGNTHYNENFKGKATMTADTSSNTAYMQLTSLTSEDSAVYYCARTDGRGYFDYWGQGTTLTVSS VL: DIVLTQSPASLVVSLGQRATISCRTSKSVSSSAYSYMHWYQQKPGQPPKVLIYLASNLESGVPARFSGSGSGTDFTLNIHPVEEEDAATYYCQHSRELPFTFGSGTKLEIKR
0.0372
